Target: T1, human interferon alpha receptor 1 (IFNAR-1) on cells (Daudi, U937, human peripheral blood mononuclear cells) (human, UniProt P17181 28-557)
T1 sequence (looked up): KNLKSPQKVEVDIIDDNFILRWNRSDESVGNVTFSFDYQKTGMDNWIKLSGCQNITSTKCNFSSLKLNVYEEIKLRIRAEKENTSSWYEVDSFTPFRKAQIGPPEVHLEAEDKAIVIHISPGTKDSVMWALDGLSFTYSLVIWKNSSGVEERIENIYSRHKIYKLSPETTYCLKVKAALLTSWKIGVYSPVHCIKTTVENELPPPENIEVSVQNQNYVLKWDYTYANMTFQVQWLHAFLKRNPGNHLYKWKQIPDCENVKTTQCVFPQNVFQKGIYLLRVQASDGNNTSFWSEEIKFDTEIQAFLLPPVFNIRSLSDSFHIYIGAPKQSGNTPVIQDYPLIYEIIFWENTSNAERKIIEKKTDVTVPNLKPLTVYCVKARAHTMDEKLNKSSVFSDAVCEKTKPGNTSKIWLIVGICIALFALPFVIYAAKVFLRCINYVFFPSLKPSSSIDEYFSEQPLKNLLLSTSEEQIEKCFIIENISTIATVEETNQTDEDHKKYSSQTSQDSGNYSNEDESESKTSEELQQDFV
Assay: cell-based or functional assay
# Cell Proliferation (Daudi) EC50, blocking of IFN omega annotations
Just the number in nM, nothing appended.

Worked cases, Cell Proliferation (Daudi) EC50, blocking of IFN omega given:
1. human monoclonal antibody 4G5 (antibody, IgG1, V domains shown) VH: QVQLQQWGAGLLKPSETLSLTCAVYGGSFSNYYWSWIRQPPGKGLEWIGEIILSGSTNYNPSLKSRVTISVDTSKNQFSLNLTSVTAADTAVYYCARESKWGYYFDSWGQGTLVTVSS VL: AIQLTQSPSSLSASVGDRVTITCRATQDISIALVWYQQKPGKAPELLIYDASGLGSGVPSRFSGSGSGTDFTLTISSLQPEDFATYYCQQFNSYPYTFGQGTKLEIK; 1.4
2. human monoclonal antibody 3F11 (antibody, IgG1, V domains shown) VH: QVQLQQWGAGLLKPSETLSLTCAVYGGSFSGYFWSWIRQPPGKGLEWIGEIDHSGKTNYNPSLKSRVTISVDTSKNQVSLKLSSVTAADTAVYYCARESKYYFGLDVWGQGTTVTVTS VL: AIQLTQSPSSLSASVGDRVTITCRASQGIYSVLAWYQQKPGKTPKLLIYDASRLESGVPSRFSGSGSGTDFTLTISSLQPEDFATYYCQQFNSYITFGQGTRLEIK; 0.6

Now, please, on to the next binder.
-- ask Looking for the measured Cell Proliferation (Daudi) EC50, blocking of IFN omega of human monoclonal antibody 9D4 (antibody, IgG1, V domains shown) VH: EVQLVQSGAEVKKPGESLKISCKGSGYIFTNYWIAWVRQMPGKGLESMGIIYPGDSDIRYSPSFQGQVTISADKSITTAYLQWSSLKASDTAMYYCARHDIEGFDYWGRGTLVTVSS VL: EIVLTQSPGTLSLSPGERATLSCRASQSVSSSFFAWYQQKPGQAPRLLIYGASSRATGIPDRLSGSGSGTDFTLTITRLEPEDFAVYYCQQYDSSAITFGQGTRLEIK , can you help?
-- reply 0.3
